activation at 1 µM values for the molecules below.
# ASSAYED_TARGET: serotoninergic 5-HT7 receptor (Homo sapiens, UniProt P34969)
# Sequence (P34969 whole entry): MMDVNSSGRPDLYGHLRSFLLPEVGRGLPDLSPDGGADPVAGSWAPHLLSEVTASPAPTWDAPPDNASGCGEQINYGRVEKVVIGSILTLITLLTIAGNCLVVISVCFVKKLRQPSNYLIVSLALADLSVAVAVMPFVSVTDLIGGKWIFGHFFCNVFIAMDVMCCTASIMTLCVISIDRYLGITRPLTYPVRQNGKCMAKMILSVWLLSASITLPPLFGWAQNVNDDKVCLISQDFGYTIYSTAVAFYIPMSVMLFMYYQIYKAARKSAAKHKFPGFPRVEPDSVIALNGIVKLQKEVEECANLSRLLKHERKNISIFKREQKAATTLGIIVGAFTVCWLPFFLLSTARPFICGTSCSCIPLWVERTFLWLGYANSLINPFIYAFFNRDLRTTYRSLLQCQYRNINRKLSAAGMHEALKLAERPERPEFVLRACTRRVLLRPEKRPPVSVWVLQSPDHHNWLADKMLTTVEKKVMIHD
# ASSAY_SUMMARY: Cellular functional assay, serotoninergic 5-HT7 receptor (agonism/antagonism)
# Assay type: cell-based
# PROTOCOL_CONDITIONS: agonist effect, percent of control specific agonist response; compounds tested at 1×10^−6M; read-out: 5-HT7-ag [%]
Express your answer in %, writing the number without its unit.

Take a look at these entries with their results.
molecule="Cc1cccc(S(=O)(=O)NCCCCN2CCC(c3noc4cc(F)ccc34)CC2)c1 [Compound 19]" assayed_target="serotoninergic 5-HT7 receptor (Homo sapiens, UniProt P34969)" endpoint_result=-1
molecule="O=S(=O)(NCCCN1CCN(c2nsc3ccccc23)CC1)c1ccc2ccccc2c1 [Compound 6]" assayed_target="serotoninergic 5-HT7 receptor (Homo sapiens, UniProt P34969)" endpoint_result=0
molecule="O=S(=O)(NCCCCN1CCN(c2nsc3ccccc23)CC1)c1cc2ccccc2s1 [Compound 239]" assayed_target="serotoninergic 5-HT7 receptor (Homo sapiens, UniProt P34969)" endpoint_result=-2

Exam item: With serotoninergic 5-HT7 receptor (Homo sapiens, UniProt P34969) as the test system, provide measured activation at 1 µM for this molecule: O=S(=O)(NCCCCN1CCN(c2noc3ccccc23)CC1)c1c[nH]c2ncccc12 [Compound 89]
Marked response: -2

Exam item: With serotoninergic 5-HT7 receptor (Homo sapiens, UniProt P34969) as the test system, provide measured activation at 1 µM for this molecule: O=S(=O)(NCCCCN1CCN(c2noc3ccccc23)CC1)c1cccc2ccccc12 [Compound 13]
Marked response: 1

Exam item: With serotoninergic 5-HT7 receptor (Homo sapiens, UniProt P34969) as the test system, provide measured activation at 1 µM for this molecule: O=S(=O)(NCCN1CCC(c2noc3cc(F)ccc23)CC1)c1ccc2ccccc2c1 [Compound 24]
Marked response: 0

Exam item: With serotoninergic 5-HT7 receptor (Homo sapiens, UniProt P34969) as the test system, provide measured activation at 1 µM for this molecule: N#Cc1cccc(S(=O)(=O)NCCCN2CCC(c3noc4cc(F)ccc34)CC2)c1 [Compound 338]
Marked response: -3

Exam item: With serotoninergic 5-HT7 receptor (Homo sapiens, UniProt P34969) as the test system, provide measured activation at 1 µM for this molecule: O=S(=O)(NCCCCN1CCN(c2cccc3[nH]ccc23)CC1)c1ccc(F)cc1 [Compound 359]
Marked response: 8

Exam item: With serotoninergic 5-HT7 receptor (Homo sapiens, UniProt P34969) as the test system, provide measured activation at 1 µM for this molecule: Cc1cccc(S(=O)(=O)NCCCN2CCC(c3noc4cc(F)ccc34)CC2)c1 [Compound 22]
Marked response: -1

Exam item: With serotoninergic 5-HT7 receptor (Homo sapiens, UniProt P34969) as the test system, provide measured activation at 1 µM for this molecule: O=S(=O)(NCCCCN1CCC(c2noc3cc(F)ccc23)CC1)c1ccc2cc(Cl)ccc2c1 [Compound 97]
Marked response: -2

Exam item: With serotoninergic 5-HT7 receptor (Homo sapiens, UniProt P34969) as the test system, provide measured activation at 1 µM for this molecule: O=S(=O)(NCCCCN1CCN(c2cccc3[nH]ccc23)CC1)c1cnc2ccccn12 [Compound 30]
Marked response: 5

Exam item: With serotoninergic 5-HT7 receptor (Homo sapiens, UniProt P34969) as the test system, provide measured activation at 1 µM for this molecule: O=S(=O)(NCCN1CCC(c2noc3cc(F)ccc23)CC1)c1cccc2ccccc12 [Compound 23]
Marked response: 0

Exam item: With serotoninergic 5-HT7 receptor (Homo sapiens, UniProt P34969) as the test system, provide measured activation at 1 µM for this molecule: O=c1[nH]c2ccc(S(=O)(=O)NCCN3CCN(c4nsc5ccccc45)CC3)cc2o1 [Compound 12]
Marked response: -1

Exam item: With serotoninergic 5-HT7 receptor (Homo sapiens, UniProt P34969) as the test system, provide measured activation at 1 µM for this molecule: O=S(=O)(NCCCCN1CCC(c2noc3cc(F)ccc23)CC1)c1csc2ccccc12 [Compound 313]
Marked response: -2

Exam item: With serotoninergic 5-HT7 receptor (Homo sapiens, UniProt P34969) as the test system, provide measured activation at 1 µM for this molecule: O=c1[nH]c2ccc(S(=O)(=O)NCCCCN3CCN(c4nsc5ccccc45)CC3)cc2o1 [Compound 4]
Marked response: -1

Exam item: With serotoninergic 5-HT7 receptor (Homo sapiens, UniProt P34969) as the test system, provide measured activation at 1 µM for this molecule: O=S(=O)(NCCN1CCN(c2nsc3ccccc23)CC1)c1ccc2ccccc2c1 [Compound 10]
Marked response: 0

Exam item: With serotoninergic 5-HT7 receptor (Homo sapiens, UniProt P34969) as the test system, provide measured activation at 1 µM for this molecule: O=S(=O)(NCCCCN1CCC(c2noc3cc(F)ccc23)CC1)c1ccc2ccccc2c1 [Compound 18]
Marked response: -1

Exam item: With serotoninergic 5-HT7 receptor (Homo sapiens, UniProt P34969) as the test system, provide measured activation at 1 µM for this molecule: Cc1c(S(=O)(=O)NCCCN2CCC(c3noc4cc(F)ccc34)CC2)sc2ccc(F)cc12 [Compound 102]
Marked response: -2

Exam item: With serotoninergic 5-HT7 receptor (Homo sapiens, UniProt P34969) as the test system, provide measured activation at 1 µM for this molecule: O=S(=O)(NCCCN1CCC(c2noc3cc(F)ccc23)CC1)c1ccc2ccccc2c1 [Compound 21]
Marked response: 0

Exam item: With serotoninergic 5-HT7 receptor (Homo sapiens, UniProt P34969) as the test system, provide measured activation at 1 µM for this molecule: O=S(=O)(NCCCCN1CCN(c2nsc3ccccc23)CC1)c1ccc2cc(Cl)ccc2c1 [Compound 61]
Marked response: -1

Exam item: With serotoninergic 5-HT7 receptor (Homo sapiens, UniProt P34969) as the test system, provide measured activation at 1 µM for this molecule: Cc1cccc(S(=O)(=O)NCCCN2CCN(c3nsc4ccccc34)CC2)c1 [Compound 7]
Marked response: -1

Exam item: With serotoninergic 5-HT7 receptor (Homo sapiens, UniProt P34969) as the test system, provide measured activation at 1 µM for this molecule: O=S(=O)(NCCCN1CCN(c2nsc3ccccc23)CC1)c1cccc2ccccc12 [Compound 5]
Marked response: -1

Exam item: With serotoninergic 5-HT7 receptor (Homo sapiens, UniProt P34969) as the test system, provide measured activation at 1 µM for this molecule: O=c1[nH]c2ccc(S(=O)(=O)NCCCCN3CCN(c4noc5ccccc45)CC3)cc2o1 [Compound 16]
Marked response: -1

// provenance: patent US8822517B2
